B1: Ribonuclease, P00648 (parent)
chain: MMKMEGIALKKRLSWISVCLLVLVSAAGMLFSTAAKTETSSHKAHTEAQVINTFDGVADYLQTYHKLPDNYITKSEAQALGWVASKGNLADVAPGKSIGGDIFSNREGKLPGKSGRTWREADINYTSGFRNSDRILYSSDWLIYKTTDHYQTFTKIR

Variants of: B1
Stated conditions: Bacillus amyloliquefaciens; pH 4.4; 25 °C; Urea; NMR; Sodium acetate 30 mM; NaCl 1 M; structure 1BNI; whole UniProt chain shown
Listed here: items and their measured ddG of mutation (higher = less stable).
Numeric answer only, unit kcal/mol assumed.

Previously resolved entries follow.
D101N ... 2.65
T53H ... 2.65
G81H ... 2.6

Returns the measured ddG of mutation (higher = less stable) for the input variant. Input: T73H D101N 5.74
